Sourced from paper PMC4409056

target: T1, MBP-MCL1 (MBP, two-residue GS linker, MCL1 173–321 K194A/K197A/R201A) (human, UniProt Q07820 173-321, K194A | K197A | R201A); test: ITC; hNoxa (20–38) (400 μM or 300 μM) titrated into 25 μM MCL1 173–329 or MBP-MCL1; autoITC200, 25°C, 25 mM Hepes pH 7.4, 100 mM NaCl, 0.1 mM TCEP, 4% DMSO; n ≥ 3, averaged KD; conditions: both partners purified
T1 construct: two-residue linker between MBP and MCL1; MCL1, human, residues 173-321 with three alanine mutations in the disordered loop; only the 6XHis-Tev part was removed with TEV protease; Six of the seven deposited PDB entries hold this construct and one holds MCL1 173–321 without MBP; also called MBP-MCL1 fusion construct; MBP-MCL1 fusion protein; source: E. coli (Top 10 or BL21 (DE3)), purified (Ni2+ …)
T1 sequence (Q07820 other isoform, or with tags, fused parts or gaps with the stated changes): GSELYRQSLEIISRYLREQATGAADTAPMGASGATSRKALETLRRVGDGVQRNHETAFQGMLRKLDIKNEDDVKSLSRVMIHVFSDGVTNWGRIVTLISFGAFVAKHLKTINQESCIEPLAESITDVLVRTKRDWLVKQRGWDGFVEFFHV
pKd: −log10 of the molar value.

binder	pKd
ELEVECATQLRRFGDKLNF (peptide, UniProt Q13794 20-38, looked up, Noxa, human, BH3 peptide, residues 20-38; also called BH3 peptide Noxa (20–38)) [hNoxa (20–38)]	6.72
